Attribution: patent US11413266B2

Test system: human epidermal keratinocytes
test-protocol: Summary score, TLR3-induced inflammation model (microbial infection-induced dermatitis)
Assay type: cell-based
assay-conditions: 3 μM; sum of +1 anti-inflammatory, 0 no effect, −1 pro-inflammatory; Table 1
Lab note: anything with SCORE at or over 8 counts as met; the rest go in not met.

Some solved entries appear below for comparison.
CCCCCc1cc(O)c(C/C=C(\C)CCC=C(C)C)c(O)c1 [CBG, Cannabigerol]
met
C=C(C)[C@@H]1CCC(C)=C[C@H]1c1c(O)cc(CCCCC)c(C(=O)O)c1O [CBDA, Cannabidiolic acid]
met
CCCc1cc(O)c2c(c1)OC(C)(C)[C@@H]1CCC(C)=C[C@@H]21 [THCV, Tetrahydrocannabivarin]
not met

# ---- query molecule ----
Exam item: Answer whether SCORE of CCCc1cc(O)c(C/C=C(\C)CCC=C(C)C)c(O)c1 [CBGV, Cannabigervarin] is greater than or equal to 8.
Marked response: not met
